The measured values listed here are drawn from ChEMBL document CHEMBL5038575.

Molecular target: UniProtKB P34972
Sequence (P34972 whole entry): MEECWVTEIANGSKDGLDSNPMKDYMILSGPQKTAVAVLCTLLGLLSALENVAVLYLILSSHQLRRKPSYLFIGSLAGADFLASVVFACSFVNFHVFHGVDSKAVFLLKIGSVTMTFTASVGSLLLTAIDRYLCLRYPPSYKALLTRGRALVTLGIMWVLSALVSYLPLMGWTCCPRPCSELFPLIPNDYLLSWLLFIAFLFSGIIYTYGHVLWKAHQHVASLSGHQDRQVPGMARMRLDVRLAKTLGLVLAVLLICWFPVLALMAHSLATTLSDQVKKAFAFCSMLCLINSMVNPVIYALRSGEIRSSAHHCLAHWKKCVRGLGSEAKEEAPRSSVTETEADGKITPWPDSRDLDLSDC
endpoint-name: pKi
Units for pKi: none; it is -log10 of a concentration expressed in mol/L.

-- ask Which pKi is listed for CC1(C)Oc2cc(C3(CCCCCCCC#N)CCCC3)cc(O)c2[C@@H]2C[C@H](CO)CC[C@H]21 ?
-- reply 9.40

-- ask Can you share its pKi? I mean this compound: CC(C)(CCCCCCN=C=S)c1cc(O)c2c(c1)OC(C)(C)[C@@H]1CC[C@@H](CO)C[C@@H]21
-- reply 8.50

-- ask Please give the measured pKi for this compound: CC1(C)Oc2cc(C3(CCCCCCN=C=S)CCCC3)cc(O)c2[C@@H]2C[C@H](CO)CC[C@H]21
-- reply 8.89

-- ask // lookup pKi for CC1(C)Oc2cc(C3(CCCCCCCN=C=S)CCCC3)cc(O)c2[C@@H]2C[C@H](CO)CC[C@H]21
-- reply 9.00

-- ask Would you kindly share the measured pKi for CC1(C)Oc2cc(C3(CCCCCCCN=[N+]=[N-])CCCC3)cc(O)c2[C@@H]2C[C@H](CN=[N+]=[N-])CC[C@H]21 ?
-- reply 8.82

-- ask Reported pKi for CC1(C)Oc2cc(C3(CCCCCCCC#N)CCCC3)cc(O)c2[C@@H]2C[C@H](CN=C=S)CC[C@H]21 : what is it?
-- reply 9.22

-- ask What does the data say about its pKi? Entry: CC1(C)Oc2cc(C3(CCCCCCCC#N)CCCC3)cc(O)c2[C@@H]2C[C@H](CN=[N+]=[N-])CC[C@H]21
-- reply 9.52

* * *

What Ki was measured for each of the following?
Kindly answer with a numeric value in nM, unit omitted.

-- ask Field: Ki (Cannabinoid receptor 1 (Rattus norvegicus)). Entry: CC(C)(CCCCCCC#N)c1cc(O)c2c(c1)OC(C)(C)[C@@H]1CC[C@@H](CO)C[C@@H]21
-- reply 0.4

-- ask Recall the recorded Ki for CCCCCCC(C)(C)c1cc(O)c2c(c1)OC(C)(C)[C@@H]1CC[C@@H](CO)C[C@@H]21 with Cannabinoid receptor 1 (Rattus norvegicus) and state it.
Sequence (P20272 whole entry): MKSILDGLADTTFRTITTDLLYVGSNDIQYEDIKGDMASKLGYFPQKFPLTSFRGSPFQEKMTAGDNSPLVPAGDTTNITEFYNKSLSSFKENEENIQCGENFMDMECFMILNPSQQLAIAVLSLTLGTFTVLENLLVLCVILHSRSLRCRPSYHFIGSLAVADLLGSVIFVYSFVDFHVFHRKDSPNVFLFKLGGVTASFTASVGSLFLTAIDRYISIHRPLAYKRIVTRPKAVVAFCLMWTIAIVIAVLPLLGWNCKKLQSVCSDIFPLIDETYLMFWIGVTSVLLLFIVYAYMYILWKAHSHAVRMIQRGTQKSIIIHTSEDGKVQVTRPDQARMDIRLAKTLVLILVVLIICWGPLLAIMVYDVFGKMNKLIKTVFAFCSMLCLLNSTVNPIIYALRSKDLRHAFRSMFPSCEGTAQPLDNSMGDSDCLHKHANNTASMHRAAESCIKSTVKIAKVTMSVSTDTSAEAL
-- reply 3

-- ask API: value(readout=Ki, system=Cannabinoid receptor 1 (Rattus norvegicus)) for record CC1(C)Oc2cc(C3(CCCCCCCC#N)CCCC3)cc(O)c2[C@@H]2C[C@H](CN=C=S)CC[C@H]21
-- reply 0.4

-- ask Write down the reported Ki of CC1(C)Oc2cc(C3(CCCCCCCN=C=S)CCCC3)cc(O)c2[C@@H]2C[C@H](CO)CC[C@H]21 , test system: Cannabinoid receptor 1 (Rattus norvegicus).
-- reply 0.4

-- ask Find Ki (Cannabinoid receptor 1 (Rattus norvegicus)) for the entry CC1(C)Oc2cc(C3(CCCCCCC#N)CCCC3)cc(O)c2[C@@H]2C[C@H](CO)CC[C@H]21
-- reply 0.8

-- ask What reported Ki corresponds to CC1(C)Oc2cc(C3(CCCCCCCN=C=S)CCCC3)cc(O)c2[C@@H]2C[C@H](CN=C=S)CC[C@H]21 on Cannabinoid receptor 1 (Rattus norvegicus)?
-- reply 37.6

-- ask Please state recorded Ki (tested on Cannabinoid receptor 1 (Rattus norvegicus)) of CC1(C)Oc2cc(C3(CCCCCCN=C=S)CCCC3)cc(O)c2[C@@H]2C[C@H](CO)CC[C@H]21
-- reply 1.1

-- ask Test system Cannabinoid receptor 1 (Rattus norvegicus); read-out Ki; what value for CC(C)(CCCCCCN=C=S)c1cc(O)c2c(c1)OC(C)(C)[C@@H]1CC[C@@H](CO)C[C@@H]21 ?
-- reply 0.39

-- ask Form field: Ki recorded for CC1(C)Oc2cc(C3(CCCCCCCN=[N+]=[N-])CCCC3)cc(O)c2[C@@H]2C[C@H](CN=[N+]=[N-])CC[C@H]21 with Cannabinoid receptor 1 (Rattus norvegicus) (enter value)
-- reply 0.7

-- ask Ki of CC1(C)Oc2cc(C3(CCCCCCCC#N)CCCC3)cc(O)c2[C@@H]2C[C@H](CN=[N+]=[N-])CC[C@H]21 on Cannabinoid receptor 1 (Rattus norvegicus)?
-- reply 0.3

-- ask Item CC1(C)Oc2cc(C3(CCCCCCCN=[N+]=[N-])CCCC3)cc(O)c2[C@@H]2C[C@H](CO)CC[C@H]21 with Cannabinoid receptor 1 (Rattus norvegicus) - Ki?
-- reply 0.5

-- ask Give recorded Ki with Cannabinoid receptor 1 (Rattus norvegicus) for the following compound: CC(C)(CCCCCCN=[N+]=[N-])c1cc(O)c2c(c1)OC(C)(C)[C@@H]1CC[C@@H](CO)C[C@@H]21
-- reply 0.41

-- ask Look up Ki with Cannabinoid receptor 1 (Rattus norvegicus) for this compound: CC1(C)Oc2cc(C3(CCCCCCCC#N)CCCC3)cc(O)c2[C@@H]2C[C@H](CO)CC[C@H]21
-- reply 0.5

-- ask What Ki appears in the records for this compound with Cannabinoid receptor 1 (Rattus norvegicus)? CC1(C)Oc2cc(C3(CCCCCCN=[N+]=[N-])CCCC3)cc(O)c2[C@@H]2C[C@H](CO)CC[C@H]21
-- reply 0.4
